Here the recorded logP is given for each entry.
// print number alone

COMPOUND: Cc1ccc(S(=O)(=O)C(=Cc2ccccc2)C(=O)OC(C)C)cc1
logP: 3.92

In: # query: logP of entry COC(=O)C(C)S(=O)(=O)c1ccc([N+](=O)[O-])cc1 (centres undefined)
Out: 1.06

In: Same lookup for "COC(=O)C(=Cc1ccccc1)S(=O)(=O)c1ccc([N+](=O)[O-])cc1" , please.
Out: 2.9

In: Same lookup for CCOC(=O)CC(C(=O)OC)S(=O)(=O)c1ccc([N+](=O)[O-])cc1 (centres undefined) , please.
Out: 1.4

In: Same lookup for "CC(C)OC(=O)C(=Cc1ccccc1)S(=O)(=O)c1ccc([N+](=O)[O-])cc1" , please.
Out: 3.62

In: Same lookup for "CCCCC(CCCC)(C(=O)OCC)S(=O)(=O)c1ccc([N+](=O)[O-])cc1" , please.
Out: 3.81
